systemTested: MlaC (Smlt4673) (Stenotrophomonas maltophilia)
Sequence (B2FP85 entry or part of it): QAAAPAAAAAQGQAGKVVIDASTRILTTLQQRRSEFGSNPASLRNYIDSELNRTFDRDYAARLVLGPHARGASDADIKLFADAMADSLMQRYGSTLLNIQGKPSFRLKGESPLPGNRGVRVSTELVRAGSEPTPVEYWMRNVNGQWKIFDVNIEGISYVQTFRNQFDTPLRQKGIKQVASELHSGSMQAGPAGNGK
methodNotes: MicroScale Thermophoresis (MST), supported by nanoDSF Tm shift
Format: binding
testReadout: Kd (µM)

CCCCCCCCCCCCCC(=O)OC[C@H](COP(=O)(O)OCCN)OC(=O)CCCCCCCCCCCCC
795
